Enzyme Activity Endpoint Assay (purified): scIgG listing for selected proteins.
# experimental_system: pooled human IgG (human IgG1, 2, 3 and 4)
Express the result in ng/µL but write the number alone.

[[record]]
protein = "PRT-642 (protein) MQITSVWTKGVTPLTPEQFRYNNEDVIHAPYLAHQGWYDITKTFNRGDNLLCGAATAGNMLHWWFDQNKTEIEAYLSKHPEKQKIIFNNQELFDLKAAIDTKDSQTNSQLFNYFRDKAFPNLSARQGGVMPDLVLDMFINGYYLNVFKTQSTDVNRPYQDKDKRGGIFDAVFTRGDQTTLLTARHDLKNKGLNDISTIIKQELTEGRALALSHTYANVSISHVINLWGADFNAEGNLEAIYVTDSDADEKIGMKKYFVGINAHGHVAISAKKIEGENIGAQVLGLFTLSSGKDIWQKLSLEHHHHHH"
value_reported = 760


### Prompt Given the entry PRT-382 (protein) MVTSVWTKGVTPPTNFTYGEDVLHAPYVANQGWYDITKTFNGKDDLLCGAATAGNMLHWWFDQNKEQIENYLKKHPEKQKINFNGEQMFDVKEAIDTKDSQLDSKLFEYFKEKAFPYLSTKHLGVFPDHVIDMFINGYRLSLTNHGPTPVKRGSKDPRGGIFDAVFTRGDQSKLLTNRHDFKEKTLKEISDLIKQELTEGKALGISHTYANVRINHVINLWGADFDAEGNLEAIYVTDSDSNASIGMKKYVVGVNSNGKVAISAKEIEEDNIGAQVLGLFTLSTGQDIWNQTN , report its measured Enzyme Activity Endpoint Assay (purified): scIgG.
### Response 226
